# tested on: canine TRPM8 (Canis lupus familiaris)
# Construct: expressed in transfected cells
# experimental protocol: In Vitro Canine TRPM8 Functional Assay (icilin-induced intracellular Ca2+, FLIPR/FDSS)
# Format: cell-based
# conditions: HEK293 cells stably expressing canine TRPM8; icilin at approx. 80% maximal response; eight-point concentration-response; read-out: IC50
The reader will find reported pIC50 values listed item by item below.
The meaning of pIC50 here: minus log10 of the concentration in molar units.

[[record]]
compound = "O=S(=O)(c1ccccc1)N(Cc1ccc(C(F)(F)F)c(F)c1)c1nc2cccc3c2n1CCC3 [compound 63]"
measure = "pIC50"
measured_result = 7.66

[[record]]
compound = "Cc1cc2nc(N(Cc3ccc(OC(F)(F)F)cc3)S(=O)(=O)c3ccccc3)n(C)c2cc1C [compound 74]"
measure = "pIC50"
measured_result = 7.72

[[record]]
compound = "Cn1c(N(Cc2ccc(F)c(C(F)(F)F)c2)S(C)(=O)=O)nc2ccccc21 [compound 17]"
measure = "pIC50"
measured_result = 8.30


Query: So what's the measured pIC50 for this one? Cn1c(N(Cc2ccc(F)c(Cl)c2)S(=O)(=O)c2ccccc2)nc2ccccc21 [compound 20]
Result: 9.00

Query: So what's the measured pIC50 for this one? CCn1c(N(Cc2ccc(C(F)(F)F)cc2)S(=O)(=O)c2ccccc2)nc2ccccc21 [compound 30]
Result: 8.40

---

The reader will find reported inhibition at 0.2 µM values listed item by item below.
# tested on: canine TRPM8 (Canis lupus familiaris, UniProt Q1A7N1)
# Construct: expressed in transfected cells
# Sequence (Q1A7N1 1-1104): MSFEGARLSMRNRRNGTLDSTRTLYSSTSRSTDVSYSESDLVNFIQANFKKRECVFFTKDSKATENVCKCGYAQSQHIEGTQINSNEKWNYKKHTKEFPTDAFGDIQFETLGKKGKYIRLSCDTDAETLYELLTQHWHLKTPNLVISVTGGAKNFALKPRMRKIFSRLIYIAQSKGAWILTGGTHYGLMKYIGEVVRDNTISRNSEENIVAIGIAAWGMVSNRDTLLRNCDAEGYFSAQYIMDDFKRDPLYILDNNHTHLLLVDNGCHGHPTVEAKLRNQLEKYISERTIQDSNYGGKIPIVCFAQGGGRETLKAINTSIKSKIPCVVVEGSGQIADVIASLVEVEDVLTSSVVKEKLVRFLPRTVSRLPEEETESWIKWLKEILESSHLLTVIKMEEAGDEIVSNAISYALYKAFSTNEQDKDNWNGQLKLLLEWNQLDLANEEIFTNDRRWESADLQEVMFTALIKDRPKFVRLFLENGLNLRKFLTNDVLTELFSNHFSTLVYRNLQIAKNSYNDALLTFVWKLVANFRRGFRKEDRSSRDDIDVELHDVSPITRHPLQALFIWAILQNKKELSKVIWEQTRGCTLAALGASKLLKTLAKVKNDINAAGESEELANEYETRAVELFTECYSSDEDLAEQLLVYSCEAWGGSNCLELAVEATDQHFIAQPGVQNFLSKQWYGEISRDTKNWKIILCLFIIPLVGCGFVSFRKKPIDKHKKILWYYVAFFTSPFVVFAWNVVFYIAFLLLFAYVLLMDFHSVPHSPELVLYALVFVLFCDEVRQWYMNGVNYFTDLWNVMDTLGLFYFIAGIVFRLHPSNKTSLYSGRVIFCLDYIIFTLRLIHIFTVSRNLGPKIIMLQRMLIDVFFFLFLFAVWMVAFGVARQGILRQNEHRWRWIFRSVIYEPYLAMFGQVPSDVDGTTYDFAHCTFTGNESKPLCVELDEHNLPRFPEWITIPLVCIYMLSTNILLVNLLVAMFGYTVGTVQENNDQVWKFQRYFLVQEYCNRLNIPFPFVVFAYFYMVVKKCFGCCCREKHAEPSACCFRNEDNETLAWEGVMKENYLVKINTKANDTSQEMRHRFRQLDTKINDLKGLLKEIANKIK
# experimental protocol: In Vitro Canine TRPM8 Functional Assay (icilin-induced intracellular Ca2+, FLIPR/FDSS)
# Format: cell-based
# conditions: HEK293, 0.2 μM compound; HEK293 cells stably expressing canine TRPM8; icilin activation; read-out: % Inh @ 0.2 μM
# Excerpt: The functional activity of representative compounds of the formula (I) of the present invention was quantified by measuring changes in intracellular calcium concentration using a Ca^2+-sensitive fluorescent dye. The changes in fluorescent signal were monitored by a fluorescence plate reader, either a FLIPR™ (Molecular Devices) or FDSS (Hamamatsu). […]
Where a name gives a salt, the structure may show the parent alone.
Report the figure in % without appending any unit label.

The examples below pair each entry with its known result.
[[record]]
molecule = "O=S(=O)(c1ccccc1)N(Cc1ccc(C(F)(F)F)cc1)c1nc2ccccc2n1CC1CC1"
result_units = "%"
measured_result = 101

[[record]]
molecule = "O=S(=O)(c1ccccc1)N(Cc1ccc(C(F)(F)F)cc1)c1nc2ccccc2n1CC(F)(F)F"
result_units = "%"
measured_result = 85

[[record]]
molecule = "O=S(=O)(c1ccccc1)N(Cc1ccc(C(F)(F)F)c(F)c1)c1nc2cccc3c2n1CCC3"
result_units = "%"
measured_result = 101

[[record]]
molecule = "Cc1ccc2nc(N(Cc3ccc(C(F)(F)F)cc3)S(=O)(=O)c3ccccc3)n(C)c2c1"
result_units = "%"
measured_result = 99

[[record]]
molecule = "Cn1c(N(Cc2ccc(OC(F)(F)F)cc2)S(=O)(=O)c2ccccc2)nc2cc(F)ccc21"
result_units = "%"
measured_result = 99

[[record]]
molecule = "O=S(=O)(c1ccccc1)N(Cc1ccc(C(F)(F)F)c(F)c1)c1nc2ccccc2n1CC1CC1"
result_units = "%"
measured_result = 101

[[record]]
molecule = "Cn1c(N(Cc2ccc(F)c(F)c2)S(=O)(=O)c2ccccc2)nc2ccccc21"
result_units = "%"
measured_result = 101

[[record]]
molecule = "O=S(=O)(c1ccccc1)N(Cc1ccc(OC(F)(F)F)cc1)c1nc2cccc3c2n1CCO3"
result_units = "%"
measured_result = 99


Query: So what's the measured inhibition at 0.2 µM for this one? Cc1cccc2c1nc(N(Cc1ccc(C(F)(F)F)c(F)c1)S(=O)(=O)c1ccccc1)n2C
Result: 101

Query: So what's the measured inhibition at 0.2 µM for this one? Cn1c(N(Cc2ccc(C(F)(F)F)cc2)S(=O)(=O)c2ccc(C(F)(F)F)cc2)nc2ccccc21
Result: 96

Query: So what's the measured inhibition at 0.2 µM for this one? O=S(=O)(c1ccccc1)N(Cc1ccc(C(F)(F)F)cc1)c1nc2cccc3c2n1CCO3 [Compound #72, TFA salt]
Result: 99

Query: So what's the measured inhibition at 0.2 µM for this one? Cn1c(N(Cc2cccc(C(F)(F)F)c2)S(=O)(=O)c2ccccc2)nc2ccccc21
Result: 102

Query: So what's the measured inhibition at 0.2 µM for this one? Cn1c(N(Cc2ccc(OC(F)(F)F)cc2)S(=O)(=O)c2ccc(Cl)cc2)nc2ccccc21
Result: 102

Query: So what's the measured inhibition at 0.2 µM for this one? Cn1c(N(Cc2ccc(C(F)(F)F)c(F)c2)S(=O)(=O)c2ccc(F)cc2)nc2ccccc21
Result: 102

Query: So what's the measured inhibition at 0.2 µM for this one? Cn1c(N(Cc2ccc(F)c(C(F)(F)F)c2)S(=O)(=O)c2ccccc2)nc2ccccc21
Result: 102

Query: So what's the measured inhibition at 0.2 µM for this one? Cn1c(N(Cc2ccc(C(F)(F)F)cc2)S(=O)(=O)c2ccccc2)nc2ccccc21
Result: 101

---

# tested on: canine TRPM8 (Canis lupus familiaris)
# Construct: expressed in transfected cells
# experimental protocol: In Vitro Canine TRPM8 Functional Assay (icilin-induced intracellular Ca2+, FLIPR/FDSS)
# Assay type: cell-based
# conditions: HEK293 cells stably expressing canine TRPM8; icilin at approx. 80% maximal response; eight-point concentration-response; read-out: IC50
The reader will find reported pIC50 values listed item by item below.
The meaning of pIC50 here: minus log10 of the concentration in molar units.

The examples below pair each entry with its known result.
[[record]]
compound = "Cn1c(N(Cc2ccccc2)S(=O)(=O)c2ccccc2)nc2ccccc21 [compound 10]"
tested_on = "canine TRPM8 (Canis lupus familiaris)"
measured_result = 8.10

[[record]]
compound = "Cc1ccc2nc(N(Cc3ccc(OC(F)(F)F)cc3)S(=O)(=O)c3ccccc3)n(C)c2c1 [compound 66]"
tested_on = "canine TRPM8 (Canis lupus familiaris)"
measured_result = 7.68

[[record]]
compound = "Cc1cccc2c1nc(N(Cc1ccc(C(F)(F)F)c(F)c1)S(=O)(=O)c1ccccc1)n2C [compound 76]"
tested_on = "canine TRPM8 (Canis lupus familiaris)"
measured_result = 8.03

[[record]]
compound = "Cn1c(N(Cc2ccc(OC(F)(F)F)cc2)S(=O)(=O)c2ccc(C(F)(F)F)cc2)nc2ccccc21 [compound 27]"
tested_on = "canine TRPM8 (Canis lupus familiaris)"
measured_result = 7.31

[[record]]
compound = "O=S(=O)(c1ccccc1)N(Cc1ccc(C(F)(F)F)c(F)c1)c1nc2ccccc2n1CC1CC1 [Compound #71]"
tested_on = "canine TRPM8 (Canis lupus familiaris)"
measured_result = 7.43

[[record]]
compound = "Cn1c(N(Cc2ccc(OC(F)(F)F)cc2)S(=O)(=O)c2ccccc2)nc2cc(F)ccc21 [compound 57]"
tested_on = "canine TRPM8 (Canis lupus familiaris)"
measured_result = 8.05

[[record]]
compound = "CCn1c(N(Cc2ccc(C(F)(F)F)c(F)c2)S(=O)(=O)c2ccccc2)nc2ccccc21 [compound 34]"
tested_on = "canine TRPM8 (Canis lupus familiaris)"
measured_result = 8.15

[[record]]
compound = "Cn1c(N(Cc2ccc(C(F)(F)F)cc2)S(=O)(=O)c2ccccc2)nc2ccccc21 [compound 11]"
tested_on = "canine TRPM8 (Canis lupus familiaris)"
measured_result = 8.70


Query: So what's the measured pIC50 for this one? Cn1c(N(Cc2ccc(OC(F)(F)F)cc2)S(=O)(=O)c2ccc(F)cc2)nc2ccccc21 [compound 32]
Result: 8.22

Query: So what's the measured pIC50 for this one? Cn1c(N(Cc2cccc(C(F)(F)F)c2)S(=O)(=O)c2ccccc2)nc2ccccc21 [Compound #12]
Result: 8.52

Query: So what's the measured pIC50 for this one? O=S(=O)(c1ccccc1)N(Cc1ccc(OC(F)(F)F)cc1)c1nc2cccc3c2n1CCC3 [compound 62]
Result: 7.72

Query: So what's the measured pIC50 for this one? CC(C)Cn1c(N(Cc2ccc(C(F)(F)F)cc2)S(=O)(=O)c2ccccc2)nc2ccccc21 [compound 24]
Result: 7.11

Query: So what's the measured pIC50 for this one? Cn1c(N(Cc2ccc(OC(F)(F)F)cc2)S(=O)(=O)c2ccc(Cl)cc2)nc2ccccc21 [compound 26]
Result: 7.96

---

# tested on: canine TRPM8 (Canis lupus familiaris)
# Construct: expressed in transfected cells
# experimental protocol: In Vitro Canine TRPM8 Functional Assay (icilin-induced intracellular Ca2+, FLIPR/FDSS)
# Type: cell-based
# conditions: HEK293, 0.2 μM compound; HEK293 cells stably expressing canine TRPM8; icilin activation; read-out: % Inh @ 0.2 μM
The reader will find reported inhibition at 0.2 µM values listed item by item below.
Report the figure in % without appending any unit label.

The examples below pair each entry with its known result.
[[record]]
smiles_input = "CC(C)Cn1c(N(Cc2ccc(C(F)(F)F)cc2)S(=O)(=O)c2ccccc2)nc2ccccc21"
tested_on = "canine TRPM8 (Canis lupus familiaris)"
result_units = "%"
measured_result = 71

[[record]]
smiles_input = "Cn1c(N(Cc2ccc(C(F)(F)F)c(F)c2)S(=O)(=O)c2ccc(Cl)cc2)nc2ccccc21"
tested_on = "canine TRPM8 (Canis lupus familiaris)"
result_units = "%"
measured_result = 102

[[record]]
smiles_input = "CN(c1nc2ccccc2n1C)S(=O)(=O)c1ccccc1"
tested_on = "canine TRPM8 (Canis lupus familiaris)"
result_units = "%"
measured_result = 9

[[record]]
smiles_input = "O=S(=O)(c1ccccc1)N(Cc1ccc(C(F)(F)F)cc1)c1nc2cccc3c2n1CCC3"
tested_on = "canine TRPM8 (Canis lupus familiaris)"
result_units = "%"
measured_result = 101

[[record]]
smiles_input = "CCn1c(N(Cc2ccc(C(F)(F)F)cc2)S(=O)(=O)c2ccccc2)nc2ccccc21"
tested_on = "canine TRPM8 (Canis lupus familiaris)"
result_units = "%"
measured_result = 96


Query: So what's the measured inhibition at 0.2 µM for this one? O=S(=O)(c1ccccc1)N(Cc1ccc(OC(F)(F)F)cc1)c1nc2ccccc2n1CC(F)(F)F
Result: 76

Query: So what's the measured inhibition at 0.2 µM for this one? Cc1cc2nc(N(Cc3ccc(C(F)(F)F)c(F)c3)S(=O)(=O)c3ccccc3)n(C)c2cc1C
Result: 101

Query: So what's the measured inhibition at 0.2 µM for this one? Cn1c(N(Cc2ccc(SC(F)(F)F)cc2)S(=O)(=O)c2ccccc2)nc2ccccc21
Result: 101
